# relative viability values compiled below
Test system: NCI-H661
Assay: relative viability (nuclei count vs DMSO), 5 days (fraction); higher = more cells survive
Conditions: first compound 4 µM
Reply: number alone, nothing else.

Reference set, count: 4
[
  {
    "compound": "Clc1ccc(Nc2nnc(Cc3ccncc3)c3ccccc23)cc1 [Vatalanib] + CC(C)C[C@H](NC(=O)[C@H](Cc1ccccc1)NC(=O)c1cnccn1)B(O)O [Bortezomib] (partner 0.002 µM)",
    "relative viability": 0.816
  },
  {
    "compound": "C[C@@H]1CN(CC(=O)Nc2ccc3c(c2)Cc2cccc(-c4cc(=O)cc(N5CCOCC5)o4)c2S3)C[C@H](C)O1 + C[C@@H](Oc1cc(-c2cnn(C3CCNCC3)c2)cnc1N)c1c(Cl)ccc(F)c1Cl [Crizotinib] (partner 1 µM)",
    "relative viability": 0.885
  },
  {
    "compound": "Clc1ccc(Nc2nnc(Cc3ccncc3)c3ccccc23)cc1 [Vatalanib] + C[C@]1(O)C[C@@H](c2nc(-c3ccc4ccc(-c5ccccc5)nc4c3)c3c(N)nccn32)C1 [Linsitinib] (partner 1 µM)",
    "relative viability": 0.581
  },
  {
    "compound": "COc1cc(N2CCC(C(N)=O)CC2)ccc1Nc1nc(N)c(Cl)c(Nc2ccccc2S(=O)(=O)C(C)C)n1 [HG-5-88-01] + CC(=O)c1c(C)c2cnc(Nc3ccc(N4CCNCC4)cn3)nc2n(C2CCCC2)c1=O [Palbociclib] (partner 0.5 µM)",
    "relative viability": 0.426
  }
]

Turning now to a further record.
input: Report value: relative viability, system: NCI-H661, compound: COc1cc(N2CCC(C(N)=O)CC2)ccc1Nc1nc(N)c(Cl)c(Nc2ccccc2S(=O)(=O)C(C)C)n1 [HG-5-88-01] + COc1cccc2cc(-c3nc([C@H]4CC[C@H](C(=O)O)CC4)n4ncnc(N)c34)[nH]c12 [OSI-027] (partner 0.5 µM)
output: 0.569

----------
Test system: BEN
Assay: relative viability (nuclei count vs DMSO), 5 days (fraction); higher = more cells survive
Conditions: first compound 0.08 µM
Parameter: relative viability. Scope: all listed entries.
Provide a numeric answer; units are not to be included.

[
  {
    "molecule": "CCCCCCCCCCCC1=C(O)C(=O)C=C(O)C1=O [Embelin] + COc1cc2c(Oc3ccc(NC(=O)C4(C(=O)Nc5ccc(F)cc5)CC4)cc3F)ccnc2cc1OCCCN1CCOCC1 [Foretinib] (partner 0.25 µM)",
    "relative viability": 0.681
  },
  {
    "molecule": "CCCCCCCCCCCC1=C(O)C(=O)C=C(O)C1=O [Embelin] + CC(=O)c1c(C)c2cnc(Nc3ccc(N4CCNCC4)cn3)nc2n(C2CCCC2)c1=O [Palbociclib] (partner 0.5 µM)",
    "relative viability": 0.486
  },
  {
    "molecule": "CCCCCCCCCCCC1=C(O)C(=O)C=C(O)C1=O [Embelin] + CS(=O)(=O)CCNCc1ccc(-c2ccc3ncnc(Nc4ccc(OCc5cccc(F)c5)c(Cl)c4)c3c2)o1 [Lapatinib] (partner 2 µM)",
    "relative viability": 0.697
  },
  {
    "molecule": "CCCCCCCCCCCC1=C(O)C(=O)C=C(O)C1=O [Embelin] + NC(=O)Nc1cc(-c2cccc(F)c2)sc1C(=O)N[C@H]1CCCNC1 [AZD7762] (partner 0.2 µM)",
    "relative viability": 0.63
  }
]

Okay, next one:
input: Provide the reported relative viability (system: BEN) for CCCCCCCCCCCC1=C(O)C(=O)C=C(O)C1=O [Embelin] + Nc1ncn([C@H]2C[C@H](O)[C@@H](CO)O2)c(=O)n1 [Decitabine] (partner 2 µM)
output: 0.717

----------
System: NCI-H1395
Assay: relative viability (nuclei count vs DMSO), 5 days (fraction); higher = more cells survive
Conditions: first compound 2.53 µM
Exam item: assign rule met to entries whose relative viability is below 0.8 and rule not met to entries at or above 0.8. Note that a value of exactly 0.8 receives rule not met.

Record excerpt, results attached:
[
  {
    "compound": "CCCCCCCCCCCC1=C(O)C(=O)C=C(O)C1=O [Embelin] + NC(=O)Nc1cc(-c2cccc(F)c2)sc1C(=O)N[C@H]1CCCNC1 [AZD7762] (partner 0.2 µM)",
    "discrete-label": "rule met"
  },
  {
    "compound": "CCCCCCCCCCCC1=C(O)C(=O)C=C(O)C1=O [Embelin] + CS(=O)(=O)N1CCN(Cc2cc3nc(-c4cccc5[nH]ncc45)nc(N4CCOCC4)c3s2)CC1 [Pictilisib] (partner 1 µM)",
    "discrete-label": "rule met"
  },
  {
    "compound": "CCCCCCCCCCCC1=C(O)C(=O)C=C(O)C1=O [Embelin] + C[C@]1(O)C[C@@H](c2nc(-c3ccc4ccc(-c5ccccc5)nc4c3)c3c(N)nccn32)C1 [Linsitinib] (partner 1 µM)",
    "discrete-label": "rule not met"
  },
  {
    "compound": "CCCCCCCCCCCC1=C(O)C(=O)C=C(O)C1=O [Embelin] + O=C(CCCCCCC(=O)Nc1ccccc1)NO [Vorinostat] (partner 1 µM)",
    "discrete-label": "rule met"
  }
]

input: Regarding CCCCCCCCCCCC1=C(O)C(=O)C=C(O)C1=O [Embelin] + Cc1cc(Nc2cc(N3CCN(C)CC3)nc(Sc3ccc(NC(=O)C4CC4)cc3)n2)n[nH]1 [Tozasertib] (partner 0.1 µM) , kindly confirm whether its relative viability is beneath 0.8.
output: rule not met

----------
Test system: EPLC-272H
Test: relative viability (nuclei count vs DMSO), 5 days (fraction); higher = more cells survive
Details: first compound 0.1265 µM
Could you please mark 1 (yes) for values of relative viability below 0.9 and 0 (no) for values at or above it?

[
  {
    "compound": "COc1cc(N2CCC(C(N)=O)CC2)ccc1Nc1nc(N)c(Cl)c(Nc2ccccc2S(=O)(=O)C(C)C)n1 [HG-5-88-01] + Nc1ncn([C@H]2C[C@H](O)[C@@H](CO)O2)c(=O)n1 [Decitabine] (partner 2 µM)",
    "discrete-label": "1 (yes)"
  },
  {
    "compound": "Clc1ccc(Nc2nnc(Cc3ccncc3)c3ccccc23)cc1 [Vatalanib] + CC(=O)c1c(C)c2cnc(Nc3ccc(N4CCNCC4)cn3)nc2n(C2CCCC2)c1=O [Palbociclib] (partner 0.5 µM)",
    "discrete-label": "1 (yes)"
  },
  {
    "compound": "COc1cc(N2CCC(C(N)=O)CC2)ccc1Nc1nc(N)c(Cl)c(Nc2ccccc2S(=O)(=O)C(C)C)n1 [HG-5-88-01] + CS(=O)(=O)CCNCc1ccc(-c2ccc3ncnc(Nc4ccc(OCc5cccc(F)c5)c(Cl)c4)c3c2)o1 [Lapatinib] (partner 2 µM)",
    "discrete-label": "0 (no)"
  },
  {
    "compound": "C[C@@H]1CN(CC(=O)Nc2ccc3c(c2)Cc2cccc(-c4cc(=O)cc(N5CCOCC5)o4)c2S3)C[C@H](C)O1 + Cc1nc(NC(=O)N2CCC[C@H]2C(N)=O)sc1-c1ccnc(C(C)(C)C(F)(F)F)c1 [Alpelisib] (partner 2 µM)",
    "discrete-label": "1 (yes)"
  },
  {
    "compound": "C[C@@H]1CN(CC(=O)Nc2ccc3c(c2)Cc2cccc(-c4cc(=O)cc(N5CCOCC5)o4)c2S3)C[C@H](C)O1 + C[C@@H](Oc1cc(-c2cnn(C3CCNCC3)c2)cnc1N)c1c(Cl)ccc(F)c1Cl [Crizotinib] (partner 1 µM)",
    "discrete-label": "0 (no)"
  },
  {
    "compound": "COc1cc(N2CCC(C(N)=O)CC2)ccc1Nc1nc(N)c(Cl)c(Nc2ccccc2S(=O)(=O)C(C)C)n1 [HG-5-88-01] + Nc1nc2[nH]cc(CCc3ccc(C(=O)N[C@@H](CCC(=O)O)C(=O)O)cc3)c2c(=O)[nH]1 [Pemetrexed] (partner 0.2 µM)",
    "discrete-label": "1 (yes)"
  }
]

input: Just wondering, is relative viability of Clc1ccc(Nc2nnc(Cc3ccncc3)c3ccccc23)cc1 [Vatalanib] + CCNC(=O)c1noc(-c2cc(C(C)C)c(O)cc2O)c1-c1ccc(CN2CCOCC2)cc1 [Luminespib] (partner 0.01 µM) below 0.9?
output: 1 (yes)

----------
Test system: NCI-H1944
Assay: relative viability (nuclei count vs DMSO), 5 days (fraction); higher = more cells survive
Settings: first compound 0.4 µM
experimental-endpoint: relative viability
Answer as a number with no unit attached.

[
  {
    "molecule": "Clc1ccc(Nc2nnc(Cc3ccncc3)c3ccccc23)cc1 [Vatalanib] + Cc1nc(NC(=O)N2CCC[C@H]2C(N)=O)sc1-c1ccnc(C(C)(C)C(F)(F)F)c1 [Alpelisib] (partner 2 µM)",
    "test-value": 0.833
  }
]

input: Fill in reported relative viability for this entry: COc1cc(N2CCC(C(N)=O)CC2)ccc1Nc1nc(N)c(Cl)c(Nc2ccccc2S(=O)(=O)C(C)C)n1 [HG-5-88-01] + Nc1nc2[nH]cc(CCc3ccc(C(=O)N[C@@H](CCC(=O)O)C(=O)O)cc3)c2c(=O)[nH]1 [Pemetrexed] (partner 0.2 µM)
output: 0.643
